system: GC3 /Cl Cells; test: Vinca (VCR, VLB) accumulation, anti-MDR activity; format: cell-based; conditions: Homo sapiens, [3H] VCR 70.4 nm, compound 100 μM, 2 h, room temperature, mean of two experiments, SD <10%, read-out: Vinca Accumulation, VCR
I would appreciate it if you labelled entries 1 when activity at 100 µM is 400% or higher, otherwise -1.

smiles: OCCN1CCN(CCCN2c3ccccc3Oc3ccccc32)CC1
system: GC3 /Cl Cells
classification: -1

smiles: OCCN(CCO)CCCN1c2ccccc2Oc2ccccc21
system: GC3 /Cl Cells
classification: 1

smiles: ClCCCCN1c2ccccc2Oc2ccccc21
system: GC3 /Cl Cells
classification: -1

smiles: OCCN1CCN(CCCCN2c3ccccc3Oc3ccccc32)CC1
system: GC3 /Cl Cells
classification: 1

smiles: O=C(CN1CCCCC1)N1c2ccccc2Oc2ccccc21
system: GC3 /Cl Cells
classification: -1

smiles: c1ccc2c(c1)Oc1ccccc1N2CCCCN1CCCCC1
system: GC3 /Cl Cells
classification: 1

smiles: O=C(CN1CCOCC1)N1c2ccccc2Oc2ccccc21
system: GC3 /Cl Cells
classification: -1

smiles: OCCN(CCO)CCCCN1c2ccccc2Oc2ccccc21
system: GC3 /Cl Cells
classification: -1

smiles: O=C(CN1CCN(CCO)CC1)N1c2ccccc2Oc2ccccc21
system: GC3 /Cl Cells
classification: -1

smiles: c1ccc2c(c1)Oc1ccccc1N2CCCN1CCCC1
system: GC3 /Cl Cells
classification: -1

smiles: c1ccc2c(c1)Oc1ccccc1N2CCCCN1CCOCC1
system: GC3 /Cl Cells
classification: 1

smiles: CCN(CC)CCCCN1c2ccccc2Oc2ccccc21
system: GC3 /Cl Cells
classification: -1

smiles: O=C(CN1CCCC1)N1c2ccccc2Oc2ccccc21
system: GC3 /Cl Cells
classification: -1

smiles: c1ccc2c(c1)Oc1ccccc1N2CCCN1CCCCC1
system: GC3 /Cl Cells
classification: -1

smiles: ClCCCN1c2ccccc2Oc2ccccc21
system: GC3 /Cl Cells
classification: 1

smiles: CCN(CC)CC(=O)N1c2ccccc2Oc2ccccc21
system: GC3 /Cl Cells
classification: -1

smiles: O=C(N1c2ccccc2Oc2ccccc21)C(F)(F)F
system: GC3 /Cl Cells
classification: -1

smiles: O=C(CCl)N1c2ccccc2Oc2ccccc21
system: GC3 /Cl Cells
classification: -1

smiles: c1ccc2c(c1)Oc1ccccc1N2CCCN1CCOCC1
system: GC3 /Cl Cells
classification: 1

smiles: CCN(CC)CCCN1c2ccccc2Oc2ccccc21
system: GC3 /Cl Cells
classification: 1
